biological target: NAD-dependent protein deacetylase sirtuin-3, mitochondrial (Homo sapiens, UniProt Q9NTG7)
Sequence (Q9NTG7 whole entry): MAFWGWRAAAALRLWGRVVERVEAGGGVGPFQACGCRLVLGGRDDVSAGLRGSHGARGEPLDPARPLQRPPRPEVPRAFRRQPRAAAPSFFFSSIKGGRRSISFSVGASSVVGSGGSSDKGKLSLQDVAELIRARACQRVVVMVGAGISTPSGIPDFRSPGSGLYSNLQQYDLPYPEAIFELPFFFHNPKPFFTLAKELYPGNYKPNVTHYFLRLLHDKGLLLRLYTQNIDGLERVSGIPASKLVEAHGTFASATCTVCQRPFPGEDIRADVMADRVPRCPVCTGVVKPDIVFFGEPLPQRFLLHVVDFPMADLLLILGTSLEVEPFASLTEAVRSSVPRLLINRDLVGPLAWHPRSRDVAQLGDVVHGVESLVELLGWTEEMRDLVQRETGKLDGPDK
Quantity: IC50 (µM)
Answers are plain numbers, in µM.

QUERY: State its IC50 for this molecule: `CN(C)CCCCC(=O)Nc1ccc(NC(=S)NC(=O)c2ccc(C(C)(C)C)cc2)cc1`
RESULT: 67

----------
biological target: NAD-dependent protein deacylase sirtuin-6 (Homo sapiens, UniProt Q8N6T7)
Sequence (Q8N6T7 whole entry): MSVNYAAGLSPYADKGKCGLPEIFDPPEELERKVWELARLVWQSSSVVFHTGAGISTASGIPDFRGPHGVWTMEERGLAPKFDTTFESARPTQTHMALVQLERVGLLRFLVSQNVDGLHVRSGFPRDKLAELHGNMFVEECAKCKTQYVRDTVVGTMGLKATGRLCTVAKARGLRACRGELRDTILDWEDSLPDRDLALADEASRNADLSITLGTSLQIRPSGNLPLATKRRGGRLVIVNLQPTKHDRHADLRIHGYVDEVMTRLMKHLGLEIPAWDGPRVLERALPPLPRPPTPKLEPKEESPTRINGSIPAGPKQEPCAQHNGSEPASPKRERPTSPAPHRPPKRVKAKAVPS
Residues, ends and D or L forms follow the SMILES beside them. *: point of attachment. Myristoyl = CCCCCCCCCCCCCC(=O)*
Quantity: pIC50
Give bare numbers, as −log10 of the molar value.

QUERY: Specify reported pIC50 for the compound shown: CCCCCCCCCCCCCC(=O)NCCCC[C@H](NC(=O)[C@@H]1CCCN1C(=O)[C@H](C)N)C(=O)N[C@@H](CO)C(=O)N[C@H](C(=O)O)[C@@H](C)O (H-APK(Myristoyl)ST-OH)
RESULT: 5.77
